I'd be grateful if you could share measured PRMT1 RGG ICW EC30 for these entries.
- target or test system: PRMT1 (Homo sapiens, UniProt Q99873)
- Construct: host or cells: RKO cells
- Sequence (Q99873 whole entry): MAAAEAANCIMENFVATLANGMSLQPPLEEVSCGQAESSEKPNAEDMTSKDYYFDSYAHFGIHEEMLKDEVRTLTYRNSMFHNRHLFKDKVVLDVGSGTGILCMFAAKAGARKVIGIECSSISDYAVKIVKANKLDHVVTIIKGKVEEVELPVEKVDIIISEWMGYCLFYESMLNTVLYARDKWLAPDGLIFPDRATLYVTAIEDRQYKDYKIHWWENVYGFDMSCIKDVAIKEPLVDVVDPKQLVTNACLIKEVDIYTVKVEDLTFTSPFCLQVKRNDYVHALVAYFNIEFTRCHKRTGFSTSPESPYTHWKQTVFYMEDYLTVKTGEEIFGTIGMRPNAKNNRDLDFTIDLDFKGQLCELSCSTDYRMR
- method notes: RKO methylation assay, In Cell Western (ICW) for mono-methyl arginine and DNA content
- Type: cell-based
- assay setup: RKO cells, 72 hours, mono-methyl arginine signal normalised to DRAQ5, percent activation
Where a name gives a salt, the structure may show the parent alone.

Bench note, PRMT1 (Homo sapiens, UniProt Q99873): "CNCCN(C)Cc1c[nH]nc1[C@H]1CC[C@@H](COCC(F)(F)F)CC1" , PRMT1 RGG ICW EC30 reads 1.721 µM

Bench note, PRMT1 (Homo sapiens, UniProt Q99873): "CNCCN(C)Cc1c[nH]nc1[C@H]1CC[C@@]2(CCCCO2)CC1" , PRMT1 RGG ICW EC30 reads 0.1147 µM

Bench note, PRMT1 (Homo sapiens, UniProt Q99873): CNCCN(C)Cc1c[nH]nc1C1CCC2(CC1)CC(C)(C)OC2=O (stereo not drawn) , PRMT1 RGG ICW EC30 reads 0.01488 µM

Bench note, PRMT1 (Homo sapiens, UniProt Q99873): "CC[C@H]1CC[C@@H](c2n[nH]cc2CN(C)CCNC)CC1" , PRMT1 RGG ICW EC30 reads 0.08301 µM

Bench note, PRMT1 (Homo sapiens, UniProt Q99873): "CNCCN(C)Cc1ccnn1[C@H]1CC[C@]2(CC1)CC(C)(C)CO2" , PRMT1 RGG ICW EC30 reads 0.3212 µM

Bench note, PRMT1 (Homo sapiens, UniProt Q99873): "CNCCN(C)Cc1c[nH]nc1[C@H]1CC[C@H](COCC(F)(F)F)CC1" , PRMT1 RGG ICW EC30 reads 0.1616 µM

Bench note, PRMT1 (Homo sapiens, UniProt Q99873): CCN(C)C(=O)C1CC(c2n[nH]cc2CN(C)CCNC)CC(C(=O)NCCC(C)C)C1(C)C (stereo not drawn) , PRMT1 RGG ICW EC30 reads >5.0 µM

Bench note, PRMT1 (Homo sapiens, UniProt Q99873): CNCCN(C)Cc1c[nH]nc1[C@H]1CC[C@]2(CCCCO2)CC1 [compound 127, bistrifluoroacetic acid salt] , PRMT1 RGG ICW EC30 reads 0.00848 µM

Bench note, PRMT1 (Homo sapiens, UniProt Q99873): "CNCCN(C)Cc1c(C)[nH]nc1[C@H]1CC[C@]2(CC1)CC(C)(C)CO2" , PRMT1 RGG ICW EC30 reads 0.08334 µM

Bench note, PRMT1 (Homo sapiens, UniProt Q99873): "CN(CCN)Cc1c[nH]nc1[C@H]1CC[C@]2(CC1)CC(C)(C)CO2" , PRMT1 RGG ICW EC30 reads 0.04527 µM

Bench note, PRMT1 (Homo sapiens, UniProt Q99873): "CN(CCN)Cc1nn(C)cc1[C@H]1CC[C@@]2(CC1)CC(C)(C)CO2" , PRMT1 RGG ICW EC30 reads 0.06159 µM

Bench note, PRMT1 (Homo sapiens, UniProt Q99873): "CCOCCOCC1(COCCOCC)CCC(c2n[nH]cc2CN(C)CCNC)CC1" , PRMT1 RGG ICW EC30 reads 1.388 µM

Bench note, PRMT1 (Homo sapiens, UniProt Q99873): CNCCN(C)Cc1c[nH]nc1C1CCC(C)(C)[C@H](COCCOC)C1 (stereo partly drawn) , PRMT1 RGG ICW EC30 reads 0.3301 µM

Bench note, PRMT1 (Homo sapiens, UniProt Q99873): "CNCCN(C)Cc1ccnn1[C@H]1CC[C@@]2(CC1)CC(C)(C)CO2" , PRMT1 RGG ICW EC30 reads 0.1113 µM

Bench note, PRMT1 (Homo sapiens, UniProt Q99873): CNCCN(C)Cc1nn(C)nc1C1CCC2(CC1)CC(C)(C)CO2 (stereo not drawn) , PRMT1 RGG ICW EC30 reads 0.4436 µM

Bench note, PRMT1 (Homo sapiens, UniProt Q99873): "CCC1(CC)C[C@]2(CC[C@@H](c3n[nH]cc3CN(C)CCNC)CC2)OC1=O" , PRMT1 RGG ICW EC30 reads 0.06546 µM

Bench note, PRMT1 (Homo sapiens, UniProt Q99873): "CNCCN(C)Cc1c(C)[nH]nc1[C@H]1CC[C@@]2(CC1)CC(C)(C)CO2" , PRMT1 RGG ICW EC30 reads 0.04032 µM

Bench note, PRMT1 (Homo sapiens, UniProt Q99873): "CNCCN(C)Cc1c[nH]nc1[C@H]1CC[C@@]2(CCCOC2)CC1" , PRMT1 RGG ICW EC30 reads 0.01465 µM
